- System tested: Cytochrome P450 3A4 (Homo sapiens) (UniProt P08684)
- Sequence (P08684 whole entry, looked up): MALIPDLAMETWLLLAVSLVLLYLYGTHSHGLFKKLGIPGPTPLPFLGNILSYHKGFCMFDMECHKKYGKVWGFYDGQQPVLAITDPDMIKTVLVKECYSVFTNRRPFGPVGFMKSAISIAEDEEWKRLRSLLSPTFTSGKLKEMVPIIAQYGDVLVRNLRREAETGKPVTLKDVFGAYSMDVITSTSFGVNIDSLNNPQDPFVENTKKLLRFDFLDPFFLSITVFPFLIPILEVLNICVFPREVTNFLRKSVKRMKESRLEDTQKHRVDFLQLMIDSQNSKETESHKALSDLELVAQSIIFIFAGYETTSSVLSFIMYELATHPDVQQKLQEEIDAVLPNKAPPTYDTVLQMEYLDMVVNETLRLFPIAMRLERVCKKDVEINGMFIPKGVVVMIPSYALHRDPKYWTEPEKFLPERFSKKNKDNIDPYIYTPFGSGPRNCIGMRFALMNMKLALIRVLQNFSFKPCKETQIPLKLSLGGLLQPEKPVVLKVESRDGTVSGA
- Assay remarks: qHTS Assay for Inhibitors and Substrates of Cytochrome P450 3A4 (AID 884); further: nearly all actives have a fitted effect of over 50% in size; further: potency means the concentration at half of the fitted maximal effect
- Measurement context: recombinant CYP3A4, Luciferin-PPXE luminescence; series mostly up to 57.1 µM
Records with an inconclusive call do not appear. The source made the active and inactive calls. The call rests on the fitted dose curve; in most records, active means well fitted inhibition curve with a large enough effect; inconclusive means small, poorly fitted or top-dose-only effect; inactive means no such curve, though single readings can be large or run the other way.
Assay endpoint: Potency

Take a look at these entries with their results.
| Compound | Potency |
| --- | --- |
| C=CCOC(=O)c1ccccc1C(=O)OCC=C | 5.01 µM (active) |
| c1cncc(C2CCCCN2)c1 (stereo unspecified) | inactive |
| CC(C)n1cnc2c(C(=O)N[C@H]3CN4CCC3CC4)cc(Cl)cc21 | inactive |
| Cn1c2c(c3ccccc31)CCNCC2 | inactive |
| C[C@@]12CCC(OS(=O)(=O)O)C[C@@H]1CCC1C2CC[C@]2(C)C(=O)CCC12 (stereo partly specified) | inactive |
| N[C@@]1(C(=O)O)CC[C@H](C(=O)O)C1 | inactive |
| Nc1nc(OCc2ccccc2)c2[nH]cnc2n1 | 7.94 µM (active) |
| Cc1cc(O)c2c(c1)C(=O)c1cc(O)cc(O)c1C2=O | 10 µM (active) |
| CN[C@@H](Cc1c[nH]c2ccccc12)C(=O)O | inactive |
| CCN(CC)CCO[C@H]1CC[C@@]2(C)C(=CC[C@@H]3[C@H]2CC[C@]2(C)C(=O)CC[C@H]32)C1 | inactive |

# input for lookup
## Input Output measured Potency for this item: Cc1cccc([C@H](C)c2cnc[nH]2)c1C
## Output 0.158 µM (active)

###

- Assay remarks: qHTS for Inhibitors of the Functional Ribonucleoprotein Complex (vRNP) of Lassa (LASV) Arenavirus: LASV Primary Screen - GLuc reporter signal (AID 1347082); further: nearly all actives have a fitted effect of over 60% in size
- Measurement context: LASV minigenome vRNP, Gaussia luciferase reporter; series mostly up to 57.5 µM
Inconclusive results are not listed. Active and inactive are the calls of the source. Calls come from the whole dose curve; tested in HEK293 reporter line.
Mark one answer only. Choices: yes for active, no for inactive

| Compound | Class |
| --- | --- |
| CO/N=C(\C(=O)N[C@@H]1C(=O)N2C(C(=O)O)=C(COC(C)=O)CS[C@H]12)c1csc(N)n1 | no |
| CC1(C)Oc2ccc3ccc(=O)oc3c2[C@@H](O)[C@H]1O | no |
| COC1=CC(=O)OC(CCc2ccc3c(c2)OCO3)C1 (stereo not given) | no |
| CC(=O)O[C@H]1C(=O)[C@@]2(C)C([C@H](OC(=O)c3ccccc3)[C@]3(O)C[C@H](OC(=O)[C@H](O)[C@@H](NC(=O)c4ccccc4)c4ccccc4)C(C)=C1C3(C)C)[C@]1(OC(C)=O)CO[C@@H]1C[C@@H]2O (stereo not given in full) | no |
| COC(=O)C=CC(=O)OC | yes |
| O=C(Oc1ccccc1)c1ccccc1C(=O)Oc1ccccc1 | no |

## Input Called result for C/C(=C\COc1ccc2ccc(=O)oc2c1)CC[C@@H](O)C(C)(C)O
## Output no

## Input Called result for C[C@H]1CCC2[C@](C)(CO)[C@@H](O)CC[C@]2(C)[C@@]12CCC(CO)(CCO)O2 (stereo not given in full)
## Output no

## Input Called result for CCn1c(C(=O)N(C2CC2)C2CC2)cc2c3c(ncn3C)c(Nc3cc(C)n(C)n3)nc21
## Output no

## Input Called result for CCCCCCCCCC=O
## Output no
